The reported numbers originate from ChEMBL document CHEMBL1201862.

system: HOP-92; assay: NCI tumour cell line growth inhibition, 48 h
Active and inactive are the calls of the source. Rule as the data show it: active = GI50 up to about 1.1 µM and inactive = higher.
measure_name: GI50

Example compounds with recorded GI50:
| compound | GI50 |
| --- | --- |
| CCOC(=O)CNC(=O)C(C)NC(=O)C(NC(=O)CC(c1ncc[nH]1)c1ncc[nH]1)C(C)CC (stereo not drawn) | > 100 µM (inactive) |
| COc1ccc(/C=C2/SC(c3c(O)ccc4ccccc34)N(NC(=O)CCCCCCCCC(=O)NN3C(=O)/C(=C\c4ccc(OC)c(OC)c4)SC3c3c(O)ccc4ccccc34)C2=O)cc1OC (stereo not drawn) | 1.09 µM (active) |

Shift focus to the following entry.
Problem: Please give the measured GI50 for this compound: C=COC(=O)N1C2CCCC(Cl)(C(C)=O)C1CC2 (stereo not drawn)
Solution: > 100 µM (inactive)

---

system: KM12; assay: NCI tumour cell line growth inhibition, 48 h
The source made the active and inactive calls. Rule as the data show it: active = GI50 up to about 1.1 µM and inactive = higher.
One label from this list, please: active, inactive

Solved cases below.
| compound | tested_system | class |
| --- | --- | --- |
| CC(=O)O[C@H]1C(=O)[C@]2(C)[C@@H](OC(=O)OCCC(O)CO)C[C@H]3OC[C@@]3(OC(C)=O)[C@H]2[C@H](OC(=O)c2ccccc2)[C@]2(O)C[C@H](OC(=O)[C@H](O)[C@@H](NC(=O)c3ccccc3)c3ccccc3)C(C)=C1C2(C)C (stereo partly drawn) | KM12 | active |
| O=C1/C(=c2\c3ccccc3n3c(=O)c4ccccc4nc23)Nc2ccccc21 [CANDIDINE] | KM12 | inactive |

# evaluate next
Problem: I'd appreciate the recorded outcome for CC(=O)C(C(C)=O)=C1CCCC(O)O1 (stereo not drawn) from this test.
Solution: inactive

---

test system: MOLT-4; experiment: NCI tumour cell line growth inhibition, 48 h
Calls of active or inactive are those of the source. Rule as the data show it: active = GI50 up to about 1.1 µM and inactive = higher.
measure_name: GI50

Example molecules with recorded GI50:
| molecule | tested_system | GI50 |
| --- | --- | --- |
| O=C(O)CSc1nc2ccccc2[nH]1 | MOLT-4 | 6.25 µM (inactive) |
| Cc1cc(O)c2c(c1)C(=O)c1c(c(O)cc(O)c1-c1c(O)cc(O)c3c1C(=O)c1cc(C)cc(O)c1C3=O)C2=O [SKYRIN] | MOLT-4 | 8.59 µM (inactive) |
| COc1ccc(CSC2=C(C#N)C(=O)NC3(CCCCC3)S2)cc1 | MOLT-4 | 36.9 µM (inactive) |
| Cc1ccc(/C(=C\C(=O)C(=O)NC23CC4CC(CC(C4)C2)C3)Sc2ccccc2)cc1 | MOLT-4 | 4.63 µM (inactive) |
| CNC(=O)CCC(NC(=O)OC(C)(C)C)C(=O)NC(Cc1ccc(NC(=O)CCCCC(C)=O)cc1)C(=O)NCC(=O)NC (stereo unspecified) | MOLT-4 | > 100 µM (inactive) |

Problem: Please give the measured GI50 for this molecule: COC1CC(OC2CCC3(C)C(=CCC4C3C(OC(C)=O)C(OC(=O)CC(C)C)C3(C)C(C(C)=O)CCC43O)C2)OC(C)C1OC1CC(OC)C(OC2CC(OC)C(OC3OC(C)C(OC4OC(CO)C(O)C(O)C4O)C(OC)C3O)C(C)O2)C(C)O1 (stereo unspecified)
Solution: > 75 µM (inactive)

Problem: Request: Cc1nc2ccc(F)cc2c2c1CCN2c1ccccc1
Solution: 15.1 µM (inactive)

Problem: Request: O=C(NCCCOC(=O)CCCCCCCCC(=O)OCCCNC(=O)NC(=O)c1c[nH]c(=O)[nH]c1=O)NC(=O)c1c[nH]c(=O)[nH]c1=O
Solution: > 100 µM (inactive)

Problem: Request: Cc1cc2nc3ccccc3n2c2nc(N)ccc12
Solution: 17.7 µM (inactive)

Problem: Request: CC(C)OP(=O)(OC(C)C)c1nc(-c2ccccc2)n(-c2ccc([N+](=O)[O-])cc2)n1
Solution: > 100 µM (inactive)

Problem: Request: CCN(CC)CC1CCCCCCCCCCC1=O (stereo unspecified)
Solution: > 100 µM (inactive)
